# experimental system: Bifunctional 3'-5' exonuclease/ATP-dependent helicase WRN (Homo sapiens)
# Sequence (Q14191 whole entry): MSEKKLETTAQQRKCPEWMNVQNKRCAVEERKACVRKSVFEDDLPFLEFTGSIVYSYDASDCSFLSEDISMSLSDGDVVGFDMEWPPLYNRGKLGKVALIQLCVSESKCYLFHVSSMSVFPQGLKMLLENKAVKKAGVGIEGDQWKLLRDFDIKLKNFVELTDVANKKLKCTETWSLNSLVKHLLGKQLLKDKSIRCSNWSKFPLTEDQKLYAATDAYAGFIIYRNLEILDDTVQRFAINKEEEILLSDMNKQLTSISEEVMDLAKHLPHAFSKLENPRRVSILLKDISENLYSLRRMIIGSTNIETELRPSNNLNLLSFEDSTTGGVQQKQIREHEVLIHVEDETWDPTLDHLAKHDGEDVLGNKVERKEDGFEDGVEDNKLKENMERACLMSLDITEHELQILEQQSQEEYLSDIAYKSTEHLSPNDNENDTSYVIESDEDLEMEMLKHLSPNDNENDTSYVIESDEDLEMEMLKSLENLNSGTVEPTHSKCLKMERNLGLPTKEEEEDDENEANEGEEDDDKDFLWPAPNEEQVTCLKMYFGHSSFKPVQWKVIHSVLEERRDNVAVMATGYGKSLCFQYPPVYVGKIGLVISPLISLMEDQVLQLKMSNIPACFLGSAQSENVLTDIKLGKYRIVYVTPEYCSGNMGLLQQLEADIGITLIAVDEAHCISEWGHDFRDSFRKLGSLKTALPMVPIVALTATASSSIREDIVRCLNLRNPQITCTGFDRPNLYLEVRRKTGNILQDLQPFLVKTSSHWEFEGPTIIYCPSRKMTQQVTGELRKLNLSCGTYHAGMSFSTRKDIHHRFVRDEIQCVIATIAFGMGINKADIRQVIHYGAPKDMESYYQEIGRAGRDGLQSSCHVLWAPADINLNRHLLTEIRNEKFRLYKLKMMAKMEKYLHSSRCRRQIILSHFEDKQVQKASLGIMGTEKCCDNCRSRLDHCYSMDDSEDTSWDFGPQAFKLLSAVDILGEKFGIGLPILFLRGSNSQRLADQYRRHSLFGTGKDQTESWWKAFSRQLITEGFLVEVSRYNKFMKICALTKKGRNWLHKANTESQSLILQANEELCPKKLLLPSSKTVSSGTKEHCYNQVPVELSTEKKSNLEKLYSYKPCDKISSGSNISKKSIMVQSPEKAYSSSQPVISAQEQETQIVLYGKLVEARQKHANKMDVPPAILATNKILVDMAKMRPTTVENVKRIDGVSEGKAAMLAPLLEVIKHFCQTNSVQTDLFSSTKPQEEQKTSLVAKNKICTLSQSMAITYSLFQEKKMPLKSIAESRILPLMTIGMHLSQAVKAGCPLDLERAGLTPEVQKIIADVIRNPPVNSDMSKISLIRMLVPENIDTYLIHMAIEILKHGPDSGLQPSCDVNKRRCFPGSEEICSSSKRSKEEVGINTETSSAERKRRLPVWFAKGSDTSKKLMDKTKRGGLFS
# assay summary: ADP-Glo Kinase Assay
pIC50: −log10 of the molar value.
measured parameter: pIC50

> print(dat)
                                   compound  meas.value
1  CCc1c(N2CCN(C(=O)c3ncnc(C)c3O)CC2)c(=O)n2nc(-c3ccn4c(cc(=O)n4C(F)F)c3F)nc2n1CC(=O)Nc1ccc(C(F)(F)F)cc1Cl        7.19

1. CCc1c(N2CCN(C(=O)c3ncnc(C)c3O)CC2)c(=O)n2nc(C3=CCOCC3)nc2n1CC(=O)NC1CC2(CC(F)C2)C1 (centres undefined)
2. CCc1c(N2CCN(C(=O)c3ncnc(C)c3O)[C@H](C)C2)c(=O)n2nc(-c3ccc4c(c3)COC4(C)C)nc2n1CC(=O)Nc1ccc(C(F)(F)F)cc1Cl
3. CCc1c(N2CCN(C(C)=O)CC2)c(=O)n2nc(-c3ncc(O)cn3)nc2n1CC(=O)Nc1ccc(C(F)(F)F)cc1Cl
4. CCc1c(N2CCN(C(=O)c3ncnc(C)c3O)CC2)c(=O)n2nc(C3=CCOCC3)nc2n1CC(=O)NC1CC2(C1)CC2(F)F (centres undefined)
# rank_down: sort by pIC50, max first As an answer, provide the labels arranged in the order called for.
2, 3, 1, 4

a. CCc1c(N2CCN(C(=O)c3ncnc(C)c3O)CC2)c(=O)n2nc(-c3ccc4c(c3)CO[C@H]4C(F)(F)F)nc2n1CC(=O)Nc1ccc(C(F)(F)F)cc1Cl
b. CCc1c(N2CCN(C(=O)/C=C/C(=O)c3ccc(OC)cc3)CC2)c(=O)n2nc(C3=CCOCC3)nc2n1CC(=O)Nc1ccc(C(F)(F)F)cc1Cl
Choose between a and b : whose measured pIC50 value is numerically larger? Respond using the label that marks the chosen record.
b
(b: 6.54, a: 6.31)

I. CCc1c(N2CCN(C(=O)C3CCCC3O)CC2)c(=O)n2nc(C3=CCOCC3)nc2n1CC(=O)Nc1ccc(C(F)(F)F)cc1Cl (centres undefined)
II. CCc1c(N2CCN(C(=O)c3ncnc(C)c3O)CC2)c(=O)n2nc(-c3ccc4c(c3)OCC4)nc2n1CC(=O)Nc1ccc(C(F)(F)F)cc1Cl
III. CCc1c(N2CCN(C(=O)c3ccccc3NS(C)(=O)=O)CC2)c(=O)n2nc(-c3cccc4c3OCCO4)nc2n1CC(=O)Nc1ccc(C(F)(F)F)cc1Cl
In this exercise, place the 3 compounds in ascending sequence of their recorded pIC50. As an answer, provide the labels arranged in the order called for.
I, III, II
(I: 5.90, III: 6.81, II: 7.46)

Values from BindingDB's records for patent WO2025049746
